Readings of fluorescence intensity in solution (S) after antigen binding for the listed binders
Target: T1, Anti-HBsAg antibody(g)
T1 construct: also called anti-HBsAg antibodies from goats; goat IgG (HBsAg)
Assay: labelled peptide on antibody immobilised on microplate; antigen HBsAg
Ends that are not written are not given here. FAM = carboxyfluorescein (FAM) fluorescent label
measurementLabel: fluorescence intensity in solution (S) after antigen binding

binder: {FAM}-VYYCFQGSHVPFTK (Synthetic 14-mer homologous to the FR3 or FR4 region of the light chain; also called L2 switching peptide; second peptide compound L2) [L2 peptide]
reportedResult: 15400

binder: SYWIHWVKQRPGQGLEWIGE (not fully specified (N-terminus), Synthetic 20-mer homologous to the FR2 region of the heavy chain; The fluorescent label differs between experiments; also called H1 switching peptide; third peptide compound H1) [H1 peptide]
reportedResult: 11500

binder: VYYCAREPTGTGIYFDVWGK (not fully specified (N-terminus), Synthetic 20-mer homologous to the FR3 or FR4 region of the heavy chain; The label differs between experiments; also called H2 switching peptide; fourth peptide compound H2) [H2 peptide]
reportedResult: 9140

binder: TYLEWYPQKPGQSPKLLIYK (not fully specified (N-terminus), Synthetic 20-mer homologous to the FR2 region of the light chain; The label differs between experiments; also called L1 switching peptide; first peptide compound L1) [L1 peptide]
reportedResult: 20500
